Reference source for all entries: patent US20210002209A1

Kindly state pIC50 for each of the entries shown.
test system: H460; assay: IC50 studies, monolayer cell culture assay (CellTiter-Glo cell viability, 72 hours); type: cell-based; conditions: H460, lung, Test II, read-out: IC50 Test (II) Avg
One number for each entry, as −log10 of the molar value.

Below are worked cases with known answers.
CC1(C)CCC(C)(C)c2cc(NC(=O)c3ccc(C(=O)O)cc3)ccc21.O=C(O)c1ccc(-c2ccccc2)cc1 [TAM-biphenyl-4-carboxylic acid]
4.29
CC1(C)CCC(C)(C)c2cc(NC(=O)c3ccc(C(=O)O)cc3)ccc21.O=C(O)c1cc(O)c(O)c(O)c1 [TAM-gallic acid]
4.38
CC1(C)CCC(C)(C)c2cc(NC(=O)c3ccc(C(=O)O)cc3)ccc21.NC(=O)c1cccnc1 [TAM-nicotinamide]
4.29

// switching to the query compound
Hey, H460 data for CC1(C)CCC(C)(C)c2cc(NC(=O)c3ccc(C(=O)O)cc3)ccc21.O=C(O)c1ccccc1-c1ccccc1C(=O)O [TAM-diphenic acid] : pIC50 came out at 4.46
